Target: Glucocorticoid receptor (Homo sapiens, UniProt P04150)
Sequence (P04150 whole entry): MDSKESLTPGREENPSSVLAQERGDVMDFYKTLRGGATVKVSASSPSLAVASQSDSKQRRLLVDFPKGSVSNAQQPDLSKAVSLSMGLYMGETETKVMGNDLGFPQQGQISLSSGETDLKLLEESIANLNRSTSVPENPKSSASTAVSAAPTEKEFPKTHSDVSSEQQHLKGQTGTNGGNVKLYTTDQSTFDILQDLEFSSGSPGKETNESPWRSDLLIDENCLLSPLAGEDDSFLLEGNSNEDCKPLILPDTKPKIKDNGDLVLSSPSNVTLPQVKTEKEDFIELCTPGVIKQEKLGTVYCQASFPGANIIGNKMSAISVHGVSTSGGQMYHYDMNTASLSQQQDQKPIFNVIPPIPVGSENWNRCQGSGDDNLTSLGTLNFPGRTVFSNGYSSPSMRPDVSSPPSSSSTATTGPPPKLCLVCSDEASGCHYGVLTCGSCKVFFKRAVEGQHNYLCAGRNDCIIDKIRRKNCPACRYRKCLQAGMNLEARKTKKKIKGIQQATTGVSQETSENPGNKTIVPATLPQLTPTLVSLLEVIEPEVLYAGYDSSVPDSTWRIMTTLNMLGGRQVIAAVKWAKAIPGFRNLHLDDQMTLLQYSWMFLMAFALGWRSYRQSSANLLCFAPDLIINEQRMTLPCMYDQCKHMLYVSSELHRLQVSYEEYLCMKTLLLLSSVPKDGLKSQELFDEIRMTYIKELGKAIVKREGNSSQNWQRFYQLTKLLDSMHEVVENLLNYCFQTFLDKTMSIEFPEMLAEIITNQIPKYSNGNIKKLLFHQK
Assay: Binding Activity of Compound of the Present Invention to Glucocorticoid Receptor GR
property-measured: pEC50
# pEC50: negative log10 of molar concentration; output just the value

# input Any idea what its pEC50 is? The compound is C[C@]12C=CC(=O)C=C1CC[C@@H]1[C@@H]2[C@@H](O)C[C@@]2(C)[C@H]1C[C@H]1O[C@@H](c3ccc(Cc4ccc5cc[nH]c5c4)cc3)O[C@]12C(=O)CO [US20240307415, Compound 003]
# output 6.92
